System: THP-1 monocytes
experiment summary: WST-1 dose-response cytotoxicity in THP-1 monocytes
Type: cell-based, human
experimental context: Homo sapiens, THP-1, 24 h
Below, each of the molecules is paired with its reported pEC50 value.
Lab note: report pEC50 as minus log10 of the concentration in molar units, number only.

Below are worked cases with known answers.
{"columns": ["molecule", "pEC50"],
 "data": [
  ["CC(=O)N1CCN(c2ccc(OCC3COC(Cn4ccnc4)(c4ccc(Cl)cc4Cl)O3)cc2)CC1 (stereo not shown)", 4.92],
  ["N[C@@H]1[C@H]2CN(c3nc4c(cc3F)c(=O)c(C(=O)O)cn4-c3ccc(F)cc3F)C[C@@H]12", 4.22],
  ["O=C(O)Cc1ccccc1Nc1c(Cl)cccc1Cl", 4.12]
]}

So, Cc1c(C)c2c(c(C)c1O)CCC(C)(COc1ccc(CC3SC(=O)NC3=O)cc1)O2 (stereo not shown) ? Its pEC50 was 4.38
